Molecular target: Transient receptor potential cation channel subfamily A member 1 (Homo sapiens)
Sequence (O75762 whole entry): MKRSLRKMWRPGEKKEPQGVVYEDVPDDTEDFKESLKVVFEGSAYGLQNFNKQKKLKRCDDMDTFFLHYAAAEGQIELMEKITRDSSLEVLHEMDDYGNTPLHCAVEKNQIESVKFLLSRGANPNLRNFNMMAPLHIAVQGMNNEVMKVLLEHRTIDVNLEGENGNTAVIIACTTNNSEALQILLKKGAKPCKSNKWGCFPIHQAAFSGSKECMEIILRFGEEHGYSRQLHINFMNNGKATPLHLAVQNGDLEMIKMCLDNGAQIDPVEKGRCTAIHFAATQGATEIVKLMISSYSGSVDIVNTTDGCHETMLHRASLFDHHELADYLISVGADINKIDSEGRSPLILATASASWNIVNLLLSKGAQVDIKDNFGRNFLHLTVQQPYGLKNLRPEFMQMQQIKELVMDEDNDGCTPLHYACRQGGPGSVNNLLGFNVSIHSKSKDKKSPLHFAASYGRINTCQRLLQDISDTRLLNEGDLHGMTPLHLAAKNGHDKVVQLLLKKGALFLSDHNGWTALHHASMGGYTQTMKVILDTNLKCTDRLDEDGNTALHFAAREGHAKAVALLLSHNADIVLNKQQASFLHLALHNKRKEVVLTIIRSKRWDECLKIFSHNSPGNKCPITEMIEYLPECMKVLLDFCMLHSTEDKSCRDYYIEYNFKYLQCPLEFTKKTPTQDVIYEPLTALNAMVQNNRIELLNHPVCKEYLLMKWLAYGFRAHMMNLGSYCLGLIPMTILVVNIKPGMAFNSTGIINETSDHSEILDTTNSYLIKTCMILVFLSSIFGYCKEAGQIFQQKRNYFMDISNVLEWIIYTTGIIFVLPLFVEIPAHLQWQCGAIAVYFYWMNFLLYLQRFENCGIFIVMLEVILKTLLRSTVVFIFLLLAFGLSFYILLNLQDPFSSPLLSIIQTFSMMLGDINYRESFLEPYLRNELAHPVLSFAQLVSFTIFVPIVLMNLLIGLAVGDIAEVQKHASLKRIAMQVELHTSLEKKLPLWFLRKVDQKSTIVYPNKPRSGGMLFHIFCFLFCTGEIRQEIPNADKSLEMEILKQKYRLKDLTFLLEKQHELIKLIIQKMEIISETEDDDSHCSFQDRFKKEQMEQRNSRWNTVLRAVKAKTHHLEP
Experiment: Inhibition Assay: IC50 values (effective concentration) of compounds on the human and rat TRPA1 channels were determined using a FLIPR Tetra instrument. CHO cells expressing TRPA1 were plated into 384-well plates, incubated overnight at 37 C, and loaded with BD calcium indicator dye for 1 hr at 37° C. followed by 15 minutes. at room temperature. The assay buffer was Hank's Balanced Salt Solution (HBSS) containing 20 mM HEPES (pH readjusted to 7.4) along with 0.02% BSA.Following dye load and plate cool down, compounds were added to the cells using FLIPR Tetra. Plates were then incubated with compounds for 20 minutes at room temperature prior to adding agonist. Following this incubation, ˜EC80 concentration of cinnamaldehyde (75 uM for human TRPA1 and 45 uM for rat TRPA1) was added to active the channels and block of cinnamaldehyde induced calcium influx was measured.

| Structure | IC50 / nM |
| --- | --- |
| COc1nn(-c2cnc(C(F)(F)F)nc2)cc1CC(=O)N[C@@H]1CC[C@@H]1S(=O)(=O)c1ccc(F)cc1 | 246 |
| O=C(Cn1cc(-c2ccc(C(F)(F)F)cc2)cn1)N[C@@H]1CC[C@@H]1S(=O)(=O)c1ccc(F)cc1 | 200 |
